- assay.text: amyloid nucleation score (Sup35N fusion, yeast selection) (log enrichment); library NNK3; higher = more nucleation; inactive = no reads after selection;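 further: zero at mode of non-aggregating sequences after 7 days selection at 30°C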
quantity: amyloid nucleation score

Here are 8 substances together with their reported answers.
Which amyloid nucleation score is reported for this substance? ILPPNWATSRVNAAGWFLGQ
inactive

Now the substance SCDLELSNLELRVWRDTVRK
1.8

Now the substance HGSYLMRILR
inactive

Now the substance YSPTAN
inactive

Now the substance IEPIECTMA
inactive

Now the substance RANESTLM
inactive

Now the substance RRNEFVLWYLGDTSWYVWFS
0.268

Now the substance FGSLPRQIMCMPA
inactive

Next:
Which amyloid nucleation score is reported for this substance? VHYWCGTQVVA
inactive

Now the substance LYGGLEHESIMFIRCSGWIC
inactive
